measurementDescription: Pharmacokinetics of M6G at single and multiple intravenous doses in healthy volunteers
Type: in vivo, human
testParameters: both sexes, human, plasma, iv, 45 mg/70 kg, single 5 min iv infusion 45 mg; Mean; read-out: Vss
measurementLabel: Vd

Which Vd is listed for CN1CC[C@]23c4c5ccc(O)c4O[C@H]2[C@@H](OC2OC(C(=O)O)C(O)C(O)C2O)C=CC3[C@H]1C5 (stereo partly shown) [M6G] ?
12.9 L

---

measurementDescription: Pharmacokinetics of M6G at single and multiple intravenous doses in healthy volunteers
Assay type: in vivo, human
testParameters: both sexes, human, plasma, intravenous, 45 mg/70 kg, single 5 min infusion 45 mg/70 kg; read-out: Cmax, Geometric LS means
measurementLabel: Cmax (ng/mL)
Give just the number in ng/mL; leave the unit off.

Which Cmax is listed for CN1CC[C@]23c4c5ccc(O)c4O[C@H]2[C@@H](OC2OC(C(=O)O)C(O)C(O)C2O)C=CC3[C@H]1C5 (stereo partly shown) [M6G] ?
5720
